targetUnderTest: HRgpA-6H (Porphyromonas gingivalis) (UniProt P28784)
testDescription: ELISA, FASEBA screening, coated HRgpA-6H; variant OD over parental WT Fab OD
propertyMeasured: Ratio OD(Variant)/OD(WT)
// no unit string in output, number only

-- ask Using the record for KB001 parental mouse Fab FASEBA variant VH S65Y (Fab, V domains shown) VH: EVQLKQSGPGLVAPSQSLSITCTVSGFSLSIYSVHWVRQPPGKGLEWLGMIWGGGSSDYNSALKYRLSISKDNSKSQVFLKMNSLQTDDTAMYYCARNGNFYAMDYWGQGTSVTVSS VL: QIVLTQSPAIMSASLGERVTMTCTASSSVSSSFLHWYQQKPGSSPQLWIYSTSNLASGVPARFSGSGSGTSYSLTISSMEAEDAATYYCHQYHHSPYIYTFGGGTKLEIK , state its measured Ratio OD(Variant)/OD(WT).
-- reply 0.875

-- ask Quickly give me recorded Ratio OD(Variant)/OD(WT) for KB001 parental mouse Fab FASEBA variant VH Y106Q (Fab, V domains shown) VH: EVQLKQSGPGLVAPSQSLSITCTVSGFSLSIYSVHWVRQPPGKGLEWLGMIWGGGSSDYNSALKSRLSISKDNSKSQVFLKMNSLQTDDTAMYYCARNGNFYAMDQWGQGTSVTVSS VL: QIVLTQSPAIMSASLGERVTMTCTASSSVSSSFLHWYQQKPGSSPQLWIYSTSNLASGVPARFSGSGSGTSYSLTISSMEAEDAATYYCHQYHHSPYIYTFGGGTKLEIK
-- reply 0.999
